Test system: CT‐26 (mouse colon adenocarcinoma)
method: Fluorometric cell viability assay (Resazurin), 2D monolayer
Assay type: cell-based
conditionDetails: CT‐26, 48 h
Assignment: determine reported IC50 for the given molecules.

The cases that follow already have their IC50 on record.
>>> print(df.to_string())
                                   molecule  reportedendpoint    result
0  N.N.[Cl][Pt][Cl] [cisplatin, reference compound]              IC50   1.94 µM
1  O=C([O-])C(=O)[O-].[Ru+2].c1cnc2c(c1)ccc1cccnc12.c1cnc2c(c1)ccc1cccnc12 [Compound 8, [Ru(phen)2(η^2‐ox)]]              IC50  > 100 µM

Okay, next one:
Query :: Give reported IC50 value for O=C([O-])CC(=O)[O-].[Ru+2].c1cnc2c(c1)ccc1cccnc12.c1cnc2c(c1)ccc1cccnc12 [Compound 6, [Ru(phen)2(η^2‐mal)]]
Result :: > 100 µM
